Target: T1, hA2b receptor (human, UniProt P29275 1-332)
T1 construct: whole, on cells; also called adenosine A2B receptor
T1 sequence (looked up): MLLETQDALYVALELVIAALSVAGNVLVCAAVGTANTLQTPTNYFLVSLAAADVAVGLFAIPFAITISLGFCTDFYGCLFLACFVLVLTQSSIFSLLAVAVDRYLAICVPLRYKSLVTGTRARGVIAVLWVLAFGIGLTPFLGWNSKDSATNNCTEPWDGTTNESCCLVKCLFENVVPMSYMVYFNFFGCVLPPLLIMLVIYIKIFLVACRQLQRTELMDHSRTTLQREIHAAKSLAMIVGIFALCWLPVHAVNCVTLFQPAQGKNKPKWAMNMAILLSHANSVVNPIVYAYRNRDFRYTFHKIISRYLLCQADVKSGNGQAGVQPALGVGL
Experiment: cell binding on hA2b HEK293T cells, one bar per antibody; the y axis has no label or unit and the antibody concentration is not given

- Binder: "A2A-26 (antibody, V domains shown, Tested as IgG) VH: EVQLLESGGGLVQPGGSLRLSCAASGFTFSTYAMGWVRQAPGKGLEWVSGISGSAGSTYYADSVKGRFTISRDNSKNTLYLQMNSLRAEDTAVYYCAAARGHWRWRLGRRYDYWGQGTLVTVSS VL: DIQMTQSPSSLSASVGDRVTITCRASQTISRYLNWYQQKPGKAPKLLIYSASTLQSGVPSRFSGSGSGTDFTLTISSLQPEDFATYYCQQSYSTPHTFGGGTKVEIK"
  binding result: "binds"

Ref: patent US20250145724A1
